- SYSTEM_NAME: PPARγ LBD protein (Homo sapiens)
- Construct: 1 nM 6xHis-PPAR LBD protein
- Sequence (P37231 238-503 limits assumed): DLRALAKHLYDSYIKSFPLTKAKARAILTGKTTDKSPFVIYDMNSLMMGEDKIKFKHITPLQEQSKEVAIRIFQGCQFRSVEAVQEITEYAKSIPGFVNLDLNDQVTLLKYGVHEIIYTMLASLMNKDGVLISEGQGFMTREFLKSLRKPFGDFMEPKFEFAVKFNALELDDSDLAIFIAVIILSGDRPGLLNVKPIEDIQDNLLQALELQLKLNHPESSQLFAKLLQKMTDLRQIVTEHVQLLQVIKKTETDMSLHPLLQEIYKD
- TEST_DESCRIPTION: LanthaScreen TR-FRET competitive ligand displacement (PPARγ protein binding) assay
- TEST_SETTINGS: TR-FRET signal at 0.16 µM
ATTRIBUTE_MEASURED: Raw Data (RLU)
Answer by giving the amount and then stating its unit.

Give recorded Raw Data (RLU) with PPARγ LBD protein (Homo sapiens) for the following compound: C=CCc1ccc(OCC(=O)Nc2cccc(C)c2)c(OC)c1
1.87 RLU

Give recorded Raw Data (RLU) with PPARγ LBD protein (Homo sapiens) for the following compound: C=CCc1ccc(OCC(=O)Nc2ccc(OC)cc2)c(OC)c1
1.960 RLU

Give recorded Raw Data (RLU) with PPARγ LBD protein (Homo sapiens) for the following compound: C=CCc1ccc(OCC(=O)Nc2ccc(C)cc2)c(OC)c1
1.95 RLU

Give recorded Raw Data (RLU) with PPARγ LBD protein (Homo sapiens) for the following compound: C=CCc1ccc(OCC(=O)Nc2ccc(Cl)cc2)c(OC)c1
1.921 RLU

src = paper PMC9172550
